# Test system: Human adenovirus 2
# test_details: Antiviral activity against Human adenovirus 2 infected in HEL cells assessed as inhibition of virus-induced cytopathicity
# Format: functional, cell-based
# measurement_conditions: Human mastadenovirus C
property_label: EC50

CCn1c(=O)n(O)c(=O)c2cc(-c3cn(Cc4ccc(C#N)cc4)nn3)ccc21: > 100 µM

Look up EC50: Cn1c(=O)n(O)c(=O)c2cc(-c3cn(Cc4cc(F)ccc4F)nn3)ccc21 > 100 µM

Look up EC50: Cn1c(=O)n(O)c(=O)c2cc(-c3cn(Cc4c(F)cccc4F)nn3)ccc21 > 100 µM

Look up EC50: Cn1c(=O)n(O)c(=O)c2cc(-c3cn(Cc4ccc(C#N)cc4)nn3)ccc21 > 100 µM

Look up EC50: Cn1c(=O)n(O)c(=O)c2cc(-c3cn(Cc4ccc(F)cc4)nn3)ccc21 > 100 µM

Look up EC50: Cn1c(=O)n(O)c(=O)c2cc(-c3cn(Cc4ccc(F)cc4F)nn3)ccc21 > 100 µM

Look up EC50: CCn1c(=O)n(O)c(=O)c2cc(-c3cn(Cc4ccccc4F)nn3)ccc21 6.5 µM

Look up EC50: CCn1c(=O)n(O)c(=O)c2cc(-c3cn(Cc4ccc(F)c(F)c4)nn3)ccc21 > 100 µM

Look up EC50: CCn1c(=O)n(O)c(=O)c2cc(-c3cn(Cc4ccccc4C)nn3)ccc21 > 100 µM

Look up EC50: CCn1c(=O)n(O)c(=O)c2cc(-c3cn(Cc4ccc(OC)cc4)nn3)ccc21 6.2 µM
